Listed next: entries and their corresponding IC50.
Biological target: Stat1:Stat1 DNA-binding activity (Mus musculus, UniProt P42225)
Construct: endogenous in cells; host or cells: EGF-stimulated NIH3T3/hEGFR fibroblasts (nuclear extract)
Assay: EMSA of Stat1:Stat1 DNA-binding activity in nuclear extracts of EGF-stimulated NIH3T3/hEGFR
Assay type: biochemical
Details: Fig. 1C, first Stat1:Stat1 value listed (hSIE probe), 30 min
Experimental: These studies were carried out as previously described using the ^32P-labeled oligonucleotide probes, hSIE (high affinity sis-inducible element from the c-fos gene, m67 variant, 5^′-[…]) that binds Stat1 and Stat3 [11, 12] and the mammary gland factor element (MGFe) from the bovine β–casein gene promoter (sense strand, 5^′-[…]) that binds Stat5 and Stat1 [11, 12]. Details are presented in Supplementary Information, “Methods”. […]
REPORTED_ENDPOINT: IC50 (µM)

COMPOUND: O=C(NO)c1ccc(N(Cc2ccc(C3CCCCC3)cc2)C(=O)[C@H]2CCN2S(=O)(=O)c2c(F)c(F)c(F)c(F)c2F)c(F)c1 [Compound H105]
UNIT_DESCRIPTOR: µM
VALUE_QUALIFIER: =
RECORDED_MEASUREMENT: 15.8

COMPOUND: O=C(NO)c1ccc(N(Cc2ccc(C3CCOCC3)cc2)C(=O)[C@H]2CCN2S(=O)(=O)c2c(F)c(F)c(F)c(F)c2F)cc1O [Compound H120]
UNIT_DESCRIPTOR: µM
VALUE_QUALIFIER: >
RECORDED_MEASUREMENT: 20

COMPOUND: O=C([C@H]1CCN1S(=O)(=O)c1c(F)c(F)c(F)c(F)c1F)N(Cc1ccc(C2CCCCC2)cn1)c1ccc2c(=O)[nH]ncc2c1 [Compound H182]
UNIT_DESCRIPTOR: µM
VALUE_QUALIFIER: =
RECORDED_MEASUREMENT: 16.8

COMPOUND: O=C([C@H]1CCN1S(=O)(=O)c1c(F)c(F)c(F)c(F)c1F)N(Cc1ccc(C2CCCCC2)cn1)c1ccc2c(=O)[nH]cnc2c1 [Compound H172]
UNIT_DESCRIPTOR: µM
VALUE_QUALIFIER: >
RECORDED_MEASUREMENT: 20

---

target: pYStat3C426A (Homo sapiens, UniProt P40763, C426A); assay: EMSA with purified mutant pYStat3C426A; conditions: EMSA, 0–50 μM H182, 30 min
Sequence (P40763 127-711 C426A): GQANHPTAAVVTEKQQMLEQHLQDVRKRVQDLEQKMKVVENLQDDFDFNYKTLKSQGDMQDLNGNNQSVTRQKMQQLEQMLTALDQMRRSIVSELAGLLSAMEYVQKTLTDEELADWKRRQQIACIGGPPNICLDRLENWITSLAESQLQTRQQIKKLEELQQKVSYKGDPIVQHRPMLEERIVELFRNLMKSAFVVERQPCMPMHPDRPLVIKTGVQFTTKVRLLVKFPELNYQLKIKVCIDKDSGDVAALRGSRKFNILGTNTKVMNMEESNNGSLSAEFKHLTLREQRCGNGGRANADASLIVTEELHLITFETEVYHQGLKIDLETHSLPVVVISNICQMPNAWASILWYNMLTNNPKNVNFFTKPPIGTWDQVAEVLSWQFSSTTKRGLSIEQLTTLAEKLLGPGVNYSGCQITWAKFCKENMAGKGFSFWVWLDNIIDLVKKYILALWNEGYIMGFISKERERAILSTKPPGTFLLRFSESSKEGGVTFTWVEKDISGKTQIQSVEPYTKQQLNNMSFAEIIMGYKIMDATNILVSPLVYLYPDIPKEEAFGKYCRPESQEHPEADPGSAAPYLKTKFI
pIC50: −log10 of the molar value.
REPORTED_ENDPOINT: pIC50

SMI: O=C([C@H]1CCN1S(=O)(=O)c1c(F)c(F)c(F)c(F)c1F)N(Cc1ccc(C2CCCCC2)cn1)c1ccc2c(=O)[nH]ncc2c1
REPORTED_ENDPOINT: pIC50
RECORDED_MEASUREMENT: 5.22

---

Listed next: entries and their corresponding IC50.
biological target: Stat5:Stat5 DNA-binding activity; test: EMSA of Stat5:Stat5 DNA-binding activity in nuclear extracts of EGF-stimulated NIH3T3/hEGFR; details: Fig. 1C, MGFe probe, 30 min

COMPOUND: O=C([C@H]1CCN1S(=O)(=O)c1c(F)c(F)c(F)c(F)c1F)N(Cc1ccc(C2CCCCC2)cn1)c1ccc2c(=O)[nH]ncc2c1 [Compound H182]
VALUE_QUALIFIER: =
IC50, µM: 19.1
--
COMPOUND: O=C(NO)c1ccc(N(Cc2ccc(C3CCCCC3)cc2)C(=O)[C@H]2CCN2S(=O)(=O)c2c(F)c(F)c(F)c(F)c2F)c(F)c1 [Compound H105]
VALUE_QUALIFIER: =
IC50, µM: 20
--
COMPOUND: O=C([C@H]1CCN1S(=O)(=O)c1c(F)c(F)c(F)c(F)c1F)N(Cc1ccc(C2CCCCC2)cn1)c1ccc2c(=O)[nH]cnc2c1 [Compound H172]
VALUE_QUALIFIER: =
IC50, µM: 20
--
COMPOUND: O=C(NO)c1ccc(N(Cc2ccc(C3CCOCC3)cc2)C(=O)[C@H]2CCN2S(=O)(=O)c2c(F)c(F)c(F)c(F)c2F)cc1O [Compound H120]
VALUE_QUALIFIER: >
IC50, µM: 20

---

assay: Plasma stability, human; format: in vitro ADME; settings: 1 h
REPORTED_ENDPOINT: remaining at 1 h (%)

MOLECULE: O=C([C@H]1CCN1S(=O)(=O)c1c(F)c(F)c(F)c(F)c1F)N(Cc1ccc(C2CCCCC2)cn1)c1ccc2c(=O)[nH]ncc2c1 [Compound H182]
REPORTED_ENDPOINT: remaining at 1 h
RECORDED_MEASUREMENT: 53

---

biological target: Stat3:Stat3 DNA-binding activity (Mus musculus); construct: endogenous in cells; host or cells: NIH3T3/v-Src fibroblasts; EGF-stimulated NIH3T3/hEGFR fibroblasts (nuclear extracts); assay: EMSA of Stat3:Stat3 DNA-binding activity in nuclear extracts; type: biochemical; details: range over the named compounds and incubation times; read-out: IC50 Stat3 DNA-binding activity in vitro (summary range)
Sequence (P42227 2-770 limits assumed): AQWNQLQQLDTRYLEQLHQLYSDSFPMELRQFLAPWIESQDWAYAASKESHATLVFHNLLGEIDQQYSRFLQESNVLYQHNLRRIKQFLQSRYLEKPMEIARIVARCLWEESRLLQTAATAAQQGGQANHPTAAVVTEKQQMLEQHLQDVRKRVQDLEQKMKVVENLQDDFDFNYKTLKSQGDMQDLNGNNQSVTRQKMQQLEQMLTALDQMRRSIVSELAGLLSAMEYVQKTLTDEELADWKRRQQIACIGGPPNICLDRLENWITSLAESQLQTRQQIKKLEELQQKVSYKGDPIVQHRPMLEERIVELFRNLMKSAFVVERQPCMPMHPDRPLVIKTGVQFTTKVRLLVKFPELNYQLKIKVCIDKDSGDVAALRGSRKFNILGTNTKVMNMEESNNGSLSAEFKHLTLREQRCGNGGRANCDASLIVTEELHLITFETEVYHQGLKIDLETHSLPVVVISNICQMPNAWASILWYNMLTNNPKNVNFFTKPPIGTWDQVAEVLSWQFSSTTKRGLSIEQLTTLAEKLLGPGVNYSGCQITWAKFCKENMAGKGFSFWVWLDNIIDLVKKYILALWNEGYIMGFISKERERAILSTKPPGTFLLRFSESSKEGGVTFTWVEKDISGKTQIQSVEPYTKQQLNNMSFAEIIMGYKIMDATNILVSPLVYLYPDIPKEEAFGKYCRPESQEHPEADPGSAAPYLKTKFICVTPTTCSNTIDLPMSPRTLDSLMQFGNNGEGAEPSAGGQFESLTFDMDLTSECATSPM
Listed next: entries and their corresponding IC50.
REPORTED_ENDPOINT: IC50

SMI: O=C(NO)c1ccc(N(Cc2ccc(C3CCOCC3)cc2)C(=O)[C@H]2CCN2S(=O)(=O)c2c(F)c(F)c(F)c(F)c2F)cc1O
RECORDED_MEASUREMENT: 1750 to 2070 nM

SMI: O=C([C@H]1CCN1S(=O)(=O)c1c(F)c(F)c(F)c(F)c1F)N(Cc1ccc(C2CCCCC2)cn1)c1ccc2c(=O)[nH]ncc2c1
RECORDED_MEASUREMENT: 380 to 980 nM

SMI: O=C(NO)c1ccc(N(Cc2ccc(C3CCCCC3)cc2)C(=O)[C@H]2CCN2S(=O)(=O)c2c(F)c(F)c(F)c(F)c2F)c(F)c1
RECORDED_MEASUREMENT: 1750 to 2070 nM

---

biological target: purified recombinant Stat3 (rStat3) (Homo sapiens); experiment: Isothermal titration calorimetry (ITC); conditions: one-site model, 25 °C
Sequence (P40763 127-711): as the sequence (P40763 127-711 C426A) above, with A300C counted along it
REPORTED_ENDPOINT: Kd

COMPOUND: O=C([C@H]1CCN1S(=O)(=O)c1c(F)c(F)c(F)c(F)c1F)N(Cc1ccc(C2CCCCC2)cn1)c1ccc2c(=O)[nH]ncc2c1 [Compound H182]
TARGET_OR_SYSTEM: purified recombinant Stat3 (rStat3) (Homo sapiens)
RECORDED_MEASUREMENT: 1970 nM

---

biological target: CYP3A (Homo sapiens, UniProt P08684); experiment: CYP inhibition, CYP3A; type: in vitro ADME; settings: probe testosterone; testosterone site; read-out: CYP Inhibition CYP3A (Testosterone) IC50
Sequence (P08684 2-503): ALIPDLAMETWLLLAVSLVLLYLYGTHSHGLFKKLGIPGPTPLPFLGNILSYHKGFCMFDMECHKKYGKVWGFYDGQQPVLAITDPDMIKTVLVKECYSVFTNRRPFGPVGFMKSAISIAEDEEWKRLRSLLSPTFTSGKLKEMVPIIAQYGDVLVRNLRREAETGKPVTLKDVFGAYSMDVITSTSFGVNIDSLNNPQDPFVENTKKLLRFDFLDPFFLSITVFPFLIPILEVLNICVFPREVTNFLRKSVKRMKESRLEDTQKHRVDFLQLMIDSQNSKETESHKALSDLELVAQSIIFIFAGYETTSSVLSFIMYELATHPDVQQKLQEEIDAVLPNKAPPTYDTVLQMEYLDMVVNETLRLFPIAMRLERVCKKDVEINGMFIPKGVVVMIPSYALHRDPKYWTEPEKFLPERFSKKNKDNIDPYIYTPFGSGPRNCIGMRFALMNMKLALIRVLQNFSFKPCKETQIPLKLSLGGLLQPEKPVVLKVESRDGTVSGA
pIC50: −log10 of the molar value.

MOLECULE: O=C([C@H]1CCN1S(=O)(=O)c1c(F)c(F)c(F)c(F)c1F)N(Cc1ccc(C2CCCCC2)cn1)c1ccc2c(=O)[nH]ncc2c1 [Compound H182]
TARGET_OR_SYSTEM: CYP3A (Homo sapiens, UniProt P08684)
pIC50: 5.92

---

system: MCF-10A cells; test: CyQuant viable cell number assay, MCF-10A; format: cell-based, human; conditions: Homo sapiens, MCF-10A, 72 h, read-out: IC50 viable cell numbers, MCF-10A

SMI: O=C([C@H]1CCN1S(=O)(=O)c1c(F)c(F)c(F)c(F)c1F)N(Cc1ccc(C2CCCCC2)cn1)c1ccc2c(=O)[nH]ncc2c1
TARGET_OR_SYSTEM: MCF-10A cells
IC50: 3.8 to 4 µM

SMI: O=C([C@H]1CCN1S(=O)(=O)c1c(F)c(F)c(F)c(F)c1F)N(Cc1ccc(C2CCCCC2)cn1)c1ccc2c(=O)[nH]cnc2c1
TARGET_OR_SYSTEM: MCF-10A cells
IC50: 3.8 to 4 µM

---

target: hERG (Homo sapiens); construct: Eurofins-CEREP (contract research organisation that ran the assay); assay: hERG Qpatch assay; format: cell-based
Sequence (Q12809 whole entry): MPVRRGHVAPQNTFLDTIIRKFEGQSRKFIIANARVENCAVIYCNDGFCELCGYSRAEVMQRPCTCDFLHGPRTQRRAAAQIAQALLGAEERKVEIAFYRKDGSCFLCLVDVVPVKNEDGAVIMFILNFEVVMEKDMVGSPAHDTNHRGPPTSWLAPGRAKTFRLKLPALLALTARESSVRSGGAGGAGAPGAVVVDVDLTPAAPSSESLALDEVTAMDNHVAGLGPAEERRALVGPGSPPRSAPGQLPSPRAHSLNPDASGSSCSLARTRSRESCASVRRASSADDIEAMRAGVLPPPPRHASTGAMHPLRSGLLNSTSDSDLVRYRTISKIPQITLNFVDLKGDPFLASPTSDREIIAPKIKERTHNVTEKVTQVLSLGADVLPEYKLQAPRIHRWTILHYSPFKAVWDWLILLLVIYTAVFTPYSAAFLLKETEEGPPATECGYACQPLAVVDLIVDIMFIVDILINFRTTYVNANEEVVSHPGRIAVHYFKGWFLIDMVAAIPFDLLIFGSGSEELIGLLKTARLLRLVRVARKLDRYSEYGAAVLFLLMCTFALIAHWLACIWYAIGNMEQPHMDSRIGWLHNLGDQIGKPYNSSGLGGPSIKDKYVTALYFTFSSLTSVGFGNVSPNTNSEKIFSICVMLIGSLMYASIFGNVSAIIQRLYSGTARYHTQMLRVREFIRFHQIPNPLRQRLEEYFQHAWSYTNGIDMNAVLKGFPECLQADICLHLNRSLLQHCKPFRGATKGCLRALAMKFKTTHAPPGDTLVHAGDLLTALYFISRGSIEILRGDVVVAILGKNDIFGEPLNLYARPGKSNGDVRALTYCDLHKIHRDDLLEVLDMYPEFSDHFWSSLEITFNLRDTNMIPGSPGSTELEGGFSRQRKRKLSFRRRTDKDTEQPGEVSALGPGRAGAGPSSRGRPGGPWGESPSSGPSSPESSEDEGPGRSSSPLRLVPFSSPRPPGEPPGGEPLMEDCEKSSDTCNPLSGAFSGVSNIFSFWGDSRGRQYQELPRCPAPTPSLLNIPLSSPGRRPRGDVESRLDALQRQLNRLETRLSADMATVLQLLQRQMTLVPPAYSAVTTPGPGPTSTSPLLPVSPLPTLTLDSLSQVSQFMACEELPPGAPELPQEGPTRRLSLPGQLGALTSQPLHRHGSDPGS
REPORTED_ENDPOINT: IC50

SMI: O=C([C@H]1CCN1S(=O)(=O)c1c(F)c(F)c(F)c(F)c1F)N(Cc1ccc(C2CCCCC2)cn1)c1ccc2c(=O)[nH]ncc2c1
REPORTED_ENDPOINT: IC50
RECORDED_MEASUREMENT: > 10 µM

---

experiment: Solubility; type: physicochemical; conditions: simulated intestinal fluid, fassgf or other biorelevant; read-out: Solubility SIF

SMI: O=C([C@H]1CCN1S(=O)(=O)c1c(F)c(F)c(F)c(F)c1F)N(Cc1ccc(C2CCCCC2)cn1)c1ccc2c(=O)[nH]ncc2c1
solubility [µg/mL]: 128

---

Listed next: entries and their corresponding IC50.
Molecular target: Stat1:Stat1 DNA-binding activity (Mus musculus)
Construct: endogenous in cells; host or cells: EGF-stimulated NIH3T3/hEGFR fibroblasts (nuclear extract)
Sequence (P42225 2-749 limits assumed): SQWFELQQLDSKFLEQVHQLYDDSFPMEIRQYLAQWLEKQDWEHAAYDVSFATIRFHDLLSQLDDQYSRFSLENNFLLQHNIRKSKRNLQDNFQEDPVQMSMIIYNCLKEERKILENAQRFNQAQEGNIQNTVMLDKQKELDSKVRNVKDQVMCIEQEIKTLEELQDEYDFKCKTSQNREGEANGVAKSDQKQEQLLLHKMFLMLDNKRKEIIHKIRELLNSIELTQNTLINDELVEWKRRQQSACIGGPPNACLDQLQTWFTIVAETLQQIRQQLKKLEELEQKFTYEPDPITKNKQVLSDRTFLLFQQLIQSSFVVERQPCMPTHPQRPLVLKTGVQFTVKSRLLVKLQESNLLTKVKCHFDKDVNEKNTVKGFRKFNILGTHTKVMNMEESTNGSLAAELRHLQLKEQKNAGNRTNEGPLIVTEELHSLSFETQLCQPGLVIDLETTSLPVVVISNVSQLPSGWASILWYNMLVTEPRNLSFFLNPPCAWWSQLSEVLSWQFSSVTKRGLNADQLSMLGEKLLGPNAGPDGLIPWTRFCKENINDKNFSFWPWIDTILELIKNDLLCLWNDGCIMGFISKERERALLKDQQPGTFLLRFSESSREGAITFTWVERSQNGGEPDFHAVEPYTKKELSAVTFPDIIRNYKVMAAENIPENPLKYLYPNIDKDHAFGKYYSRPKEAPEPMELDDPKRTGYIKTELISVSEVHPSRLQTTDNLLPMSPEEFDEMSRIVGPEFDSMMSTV
Experiment: EMSA of Stat1:Stat1 DNA-binding activity in nuclear extracts of EGF-stimulated NIH3T3/hEGFR
Format: biochemical
Conditions: Fig. 1C, second Stat1:Stat1 value listed (MGFe probe), 30 min
REPORTED_ENDPOINT: IC50

SMI: O=C(NO)c1ccc(N(Cc2ccc(C3CCOCC3)cc2)C(=O)[C@H]2CCN2S(=O)(=O)c2c(F)c(F)c(F)c(F)c2F)cc1O
REPORTED_ENDPOINT: IC50
RECORDED_MEASUREMENT: > 20 µM

SMI: O=C(NO)c1ccc(N(Cc2ccc(C3CCCCC3)cc2)C(=O)[C@H]2CCN2S(=O)(=O)c2c(F)c(F)c(F)c(F)c2F)c(F)c1
REPORTED_ENDPOINT: IC50
RECORDED_MEASUREMENT: > 20 µM

SMI: O=C([C@H]1CCN1S(=O)(=O)c1c(F)c(F)c(F)c(F)c1F)N(Cc1ccc(C2CCCCC2)cn1)c1ccc2c(=O)[nH]ncc2c1
REPORTED_ENDPOINT: IC50
RECORDED_MEASUREMENT: 17.8 µM

SMI: O=C([C@H]1CCN1S(=O)(=O)c1c(F)c(F)c(F)c(F)c1F)N(Cc1ccc(C2CCCCC2)cn1)c1ccc2c(=O)[nH]cnc2c1
REPORTED_ENDPOINT: IC50
RECORDED_MEASUREMENT: > 20 µM
